system: HEK-293T; assay: Multiplex assay against HEK293T; type: toxicity, cell-based; conditions: human, 24 h, 10 µM, compound concentration 10 uM, replicate 1
measured_parameter: Population Pyknosed Nuclei (%)
Give the value in % but do not write % after it.

1) COc1cc2ncn(-c3cc(OCc4ccccc4C(F)(F)F)c(C(N)=O)s3)c2cc1OC [GW843682X] ... 31
2) CN1CCN(Cc2ccc(Nc3ncc(Cl)c(Nc4ccccc4S(=O)(=O)N(C)C)n3)cc2)CC1 ... 50
3) COc1ccccc1CN[C@H]1C2CCN(CC2)[C@H]1C(c1ccccc1)c1ccccc1 ... 47
4) Cc1nc(N2CC[C@H](O)C2)ncc1-c1cc(C(F)(F)F)cc2[nH]ncc12 ... 9

query: For the molecule `C=CC(=O)Nc1ccc2[nH]c(=O)n(C3CCN(Cc4ccc(-c5nc6cc[nH]c(=O)c6cc5-c5ccccc5)cc4)CC3)c2c1` , report Population Pyknosed Nuclei (%).
result: 23

query: For the molecule `COC(=O)C1=C(C)NC(C)=C(C(=O)OCCCN2CCC(c3ccccc3)(c3ccccc3)CC2)[C@H]1c1cccc([N+](=O)[O-])c1` , report Population Pyknosed Nuclei (%).
result: 75

query: For the molecule `CCCSc1nc(N[C@@H]2C[C@H]2c2ccc(F)c(F)c2)c2nnn([C@@H]3C[C@H](OCCO)[C@@H](O)[C@H]3O)c2n1` , report Population Pyknosed Nuclei (%).
result: 57

query: For the molecule CC1=C(C(=O)Nc2cc3cn[nH]c3cc2F)C(c2ccc(C(F)(F)F)cc2)CC(=O)N1 (stereo unspecified) , report Population Pyknosed Nuclei (%).
result: 42

###

test system: Fibroblast; assay: Multiplex assay against human fibroblast; assay type: toxicity, cell-based; settings: 48 h, 1 µM, compound concentration 1 uM, replicate 1
Kind request: treat 100 as inclusive, so Total Cell Count at 100 or higher is label 1, anything lower is label 0.

A selection of reference data follows.
1) COc1ccccc1CN[C@H]1C2CCN(CC2)[C@H]1C(c1ccccc1)c1ccccc1 ... label 1
2) COc1ccc(-c2ccc3ncc4c(c3c2)n(-c2ccc(N3CCNCC3)c(C(F)(F)F)c2)c(=O)n4C)cn1.O=C(O)/C=C\C(=O)O ... label 1

query: Given `CNC(=O)Nc1ccc(-c2nc(N3CC4CCC(C3)O4)c3cnn(C4CCC5(CC4)OCCO5)c3n2)cc1` , state whether its Total Cell Count is at least 100.
result: label 0

query: Given `COc1cc(Nc2nccc(-c3cnn4nc(OC)ccc34)n2)cc(C(F)(F)F)c1` , state whether its Total Cell Count is at least 100.
result: label 0

query: Given CCc1nn(CCCN2CCN(c3cccc(Cl)c3)CC2)c(=O)n1CCOc1ccccc1.Cl [NEFAZODONE HYDROCHLORIDE] , state whether its Total Cell Count is at least 100.
result: label 1

###

test system: Fibroblast; assay: Multiplex assay against human fibroblast; assay type: toxicity, cell-based; conditions: 48 h, 1 µM, compound concentration 1 uM, replicate 2
Kind request: treat 9% as inclusive, so Population Hoechst High Intensity Objects (%) at 9% or higher is Satisfied, anything lower is Not satisfied.

A selection of reference data follows.
1) O=c1cc(N2CCOCC2)oc2c(-c3cccc4c3sc3ccccc34)cccc12 ... Not satisfied
2) CC(C)(C)NC[C@H](O)COc1nsnc1N1CCOCC1 [TIMOLOL] ... Satisfied
3) CC(C)NC(=O)N1CC[C@H](NC2=Nc3cc(F)ccc3N(CC(F)F)c3ccc(Cl)cc32)C1 ... Satisfied
4) COc1cc(Nc2nccc(-c3cnn4nc(OC)ccc34)n2)cc(C(F)(F)F)c1 ... Satisfied
5) COC(=O)C1=C(C)NC(C)=C(C(=O)OCCCN2CCC(c3ccccc3)(c3ccccc3)CC2)[C@H]1c1cccc([N+](=O)[O-])c1 [NIGULDIPINE] ... Satisfied

query: Given `CC(C)Oc1ccccc1C(=O)Nc1ccccc1C(=O)Nc1cccc(S(=O)(=O)C(F)(F)F)c1` , state whether its Population Hoechst High Intensity Objects (%) is at least 9%.
result: Not satisfied

query: Given CN1CCN(Cc2ccc(Nc3ncc(Cl)c(Nc4ccccc4S(=O)(=O)N(C)C)n3)cc2)CC1 [DUBERMATINIB] , state whether its Population Hoechst High Intensity Objects (%) is at least 9%.
result: Not satisfied

query: Given `Cl.O=C(O)c1cc(-c2ccc(C3CCNCC3)cc2)c2ccc(-c3ccc(C(F)(F)F)cc3)cc2c1` , state whether its Population Hoechst High Intensity Objects (%) is at least 9%.
result: Not satisfied

query: Given COc1ccccc1CN[C@H]1C2CCN(CC2)[C@H]1C(c1ccccc1)c1ccccc1 [CP-96345] , state whether its Population Hoechst High Intensity Objects (%) is at least 9%.
result: Satisfied

query: Given C[C@]12CC[C@@H]3c4ccc(O)cc4CC[C@H]3[C@@H]1CC[C@@H]2O [ESTRADIOL] , state whether its Population Hoechst High Intensity Objects (%) is at least 9%.
result: Satisfied

###

tested on: HEK-293T; assay: Multiplex assay against HEK293T; type: toxicity, cell-based; details: human, 48 h, 10 µM, compound concentration 10 uM, replicate 2
Kind request: treat 40% as inclusive, so Population Healthy Nuclei (%) at 40% or higher is True, anything lower is False.

A selection of reference data follows.
1. CCCSc1nc(N[C@@H]2C[C@H]2c2ccc(F)c(F)c2)c2nnn([C@@H]3C[C@H](OCCO)[C@@H](O)[C@H]3O)c2n1 ... False
2. CC(C)(C)NC[C@H](O)COc1nsnc1N1CCOCC1 ... True

query: Given CCc1nn(CCCN2CCN(c3cccc(Cl)c3)CC2)c(=O)n1CCOc1ccccc1.Cl [NEFAZODONE HYDROCHLORIDE] , state whether its Population Healthy Nuclei (%) is at least 40%.
result: False

query: Given `Cl.O=C(O)c1cc(-c2ccc(C3CCNCC3)cc2)c2ccc(-c3ccc(C(F)(F)F)cc3)cc2c1` , state whether its Population Healthy Nuclei (%) is at least 40%.
result: False

query: Given `CN1CCN(Cc2ccc(Nc3ncc(Cl)c(Nc4ccccc4S(=O)(=O)N(C)C)n3)cc2)CC1` , state whether its Population Healthy Nuclei (%) is at least 40%.
result: False

query: Given Cc1cccc(CN2CCN(C(c3ccccc3)c3ccc(Cl)cc3)CC2)c1.Cl.Cl (configuration not stated) , state whether its Population Healthy Nuclei (%) is at least 40%.
result: True

query: Given `CC(C)Oc1ccccc1C(=O)Nc1ccccc1C(=O)Nc1cccc(S(=O)(=O)C(F)(F)F)c1` , state whether its Population Healthy Nuclei (%) is at least 40%.
result: False

query: Given `Cc1ccc(C)c(Oc2ccncc2C(=O)N2CCN(C3CC3)c3ccccc32)c1` , state whether its Population Healthy Nuclei (%) is at least 40%.
result: True

query: Given `CC(C)NC(=O)N1CC[C@H](NC2=Nc3cc(F)ccc3N(CC(F)F)c3ccc(Cl)cc32)C1` , state whether its Population Healthy Nuclei (%) is at least 40%.
result: True

query: Given `COc1cc(Nc2nccc(-c3cnn4nc(OC)ccc34)n2)cc(C(F)(F)F)c1` , state whether its Population Healthy Nuclei (%) is at least 40%.
result: True

query: Given `CCOC(=O)Nc1cc(-c2ccc(C)c(NS(C)(=O)=O)c2)nn2c(C)nnc12` , state whether its Population Healthy Nuclei (%) is at least 40%.
result: True

query: Given COc1cc2ncn(-c3cc(OCc4ccccc4C(F)(F)F)c(C(N)=O)s3)c2cc1OC [GW843682X] , state whether its Population Healthy Nuclei (%) is at least 40%.
result: True

query: Given CC1=C(C(=O)Nc2cc3cn[nH]c3cc2F)C(c2ccc(C(F)(F)F)cc2)CC(=O)N1 (configuration not stated) , state whether its Population Healthy Nuclei (%) is at least 40%.
result: True

query: Given `O=c1cc(N2CCOCC2)oc2c(-c3cccc4c3sc3ccccc34)cccc12` , state whether its Population Healthy Nuclei (%) is at least 40%.
result: False

query: Given `COc1ccc(-c2ccc3ncc4c(c3c2)n(-c2ccc(N3CCNCC3)c(C(F)(F)F)c2)c(=O)n4C)cn1.O=C(O)/C=C\C(=O)O` , state whether its Population Healthy Nuclei (%) is at least 40%.
result: False

query: Given O=C(c1cc2c(cc1F)OC(c1ccc(F)cc1)(c1ccc(Cl)cc1Cl)O2)N1CCOCC1 (configuration not stated) , state whether its Population Healthy Nuclei (%) is at least 40%.
result: False

###

Listed below: Population Fragmented Nuclei (%) values for each entry.
test system: U2OS; experiment: Multiplex assay against U2OS; format: toxicity, cell-based; details: human, 24 h, 10 µM, compound concentration 10 uM, replicate 1
Give the value in % but do not write % after it.

Below: 5 molecules and their reported Population Fragmented Nuclei (%).
1) C[C@]12CC[C@@H]3c4ccc(O)cc4CC[C@H]3[C@@H]1CC[C@@H]2O [ESTRADIOL] ... 7
2) COc1cc(Nc2nccc(-c3cnn4nc(OC)ccc34)n2)cc(C(F)(F)F)c1 ... 36
3) C=CC(=O)Nc1cccc(Oc2nc(Nc3ccc(N4CCN(C)CC4)cc3OC)ncc2Cl)c1 ... 5
4) COc1cc2ncn(-c3cc(OCc4ccccc4C(F)(F)F)c(C(N)=O)s3)c2cc1OC [GW843682X] ... 14
5) CC(C)c1noc(N2CCC(COc3ccc(-c4ccc(S(C)(=O)=O)cc4)nc3)CC2)n1 [GSK-1292263] ... 20

query: For the molecule `O=c1cc(N2CCOCC2)oc2c(-c3cccc4c3sc3ccccc34)cccc12` , report Population Fragmented Nuclei (%).
result: 16

query: For the molecule `CNC(=O)Nc1ccc(-c2nc(N3CC4CCC(C3)O4)c3cnn(C4CCC5(CC4)OCCO5)c3n2)cc1` , report Population Fragmented Nuclei (%).
result: 25
